target: Serine/threonine-protein kinase pim-1 (Homo sapiens) (UniProt P11309); assay: PIM1 kinase ligand binding by thermal shift, biophysical, human, melting temperature shift (AID 393); conditions: Thermal shift assay, hits give high values; at 10 µM, protein 2 µM, buffer 10 mM PIPES, pH 6.5, NaCl 150 mM unless noted
Sequence (P11309 whole entry, looked up): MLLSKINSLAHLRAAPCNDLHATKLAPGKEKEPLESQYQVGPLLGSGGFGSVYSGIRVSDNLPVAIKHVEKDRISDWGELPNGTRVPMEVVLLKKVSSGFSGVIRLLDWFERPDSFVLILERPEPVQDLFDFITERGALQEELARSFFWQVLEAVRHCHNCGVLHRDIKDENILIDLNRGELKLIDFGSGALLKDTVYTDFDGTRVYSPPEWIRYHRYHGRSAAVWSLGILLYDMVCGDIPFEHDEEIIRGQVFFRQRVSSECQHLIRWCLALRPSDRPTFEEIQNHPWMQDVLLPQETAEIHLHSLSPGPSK
Active and inactive are the calls of the source. The rule behind the calls is not given here.
Here, each record is paired with measured Tm shift data.

Some entries whose results are on file:
Chemical structure: CC(C)[C@@H](CO)Nc1ccc2ncc(-c3ccc(C#N)cc3)n2n1
Tm shift: 4.53 Celsius (active)
//
Chemical structure: O=C1NC(=O)c2c1c1c3ccccc3[nH]c1c1[nH]c3cc(Br)ccc3c21
Tm shift: 7.64 Celsius (active)
//
Chemical structure: Nc1cccc(-c2cnn3ccc(Nc4cccc(Cl)c4)nc23)c1
Tm shift: 6.21 Celsius (active)

## Task For the compound shown here, "Fc1ccc(-c2cnc3ccc(NC4CCOCC4)nn23)cc1" , give the reported Tm shift.
## Result 7.86 Celsius (active)

## Task Then "CCOc1c(Br)ccc2c1sc1nc[nH]c(=O)c12" ?
## Result 3.5 Celsius (active)

## Task Then "COc1ccc2oc3c(=O)[nH]cnc3c2c1" ?
## Result 3.45 Celsius (active)

## Task Then "CC(=O)n1c(O)c(C2=NC(=S)NC2=O)c2ccccc21" ?
## Result 3.17 Celsius (active)

## Task Then "CC(C)[C@@H](CO)Nc1ccc2ncc(-c3cccc(Cl)c3)n2n1" ?
## Result 6.86 Celsius (active)

## Task Then "CC(C)[C@@H](CO)Nc1ccc2ncc(-c3cccc(OC(F)(F)F)c3)n2n1" ?
## Result 8.65 Celsius (active)

## Task Then "CC(=O)Nc1cccc(-c2cnc3ccc(NC4CCOCC4)nn23)c1" ?
## Result 3.48 Celsius (active)
